Data origin, for the record: patent US20230364029A1

test: Solubility measurement of Pattern A in 17 solvent systems (gravimetric); type: physicochemical; conditions: MeCN, 50 °C, organic solvent or mixture, thermodynamic from solid, gravimetric
property: solubility
Hey, just the number and the unit after it is fine.

Asked: Which measured solubility value corresponds to `CC1=C(C)C(=O)C(CC[C@@](C)(O)C(N)=O)=C(C)C1=O` ?
Given back: 38 mg/mL

----------
assay: Solubility measurement of Pattern A in 17 solvent systems (gravimetric); type: physicochemical; conditions: 2-MeTHF, 25 °C, organic solvent or mixture, thermodynamic from solid, gravimetric
property: solubility (mg/mL)
Numbers only; they are read as mg/mL.

Asked: Which measured solubility value corresponds to `CC1=C(C)C(=O)C(CC[C@@](C)(O)C(N)=O)=C(C)C1=O` ?
Given back: 35

----------
experiment: 7 day elevated aqueous humidity studies; format: physicochemical; conditions: > 95 %RH at Ambient, form after 7 days

# compound, XRPD [Pattern] 7 day
rows = [
    ("CC1=C(C)C(=O)C(CC[C@@](C)(O)C(N)=O)=C(C)C1=O [Pattern A]", "no change in form"),
    ("CC1=C(C)C(=O)C(CC[C@@](C)(O)C(N)=O)=C(C)C1=O [Pattern C]", "no change in form"),
    ("CC1=C(C)C(=O)C(CC[C@@](C)(O)C(N)=O)=C(C)C1=O [Pattern E]", "no change in form"),
]

----------
assay: Solubility measurement of Pattern A in 17 solvent systems (gravimetric); assay type: physicochemical; conditions: IPAc, 50 °C, organic solvent or mixture, thermodynamic from solid, gravimetric
property: solubility (mg/mL)
Numbers only; they are read as mg/mL.

Asked: Which measured solubility value corresponds to CC1=C(C)C(=O)C(CC[C@@](C)(O)C(N)=O)=C(C)C1=O [Pattern A] ?
Given back: 16

----------
test: Solubility measurement of Pattern A in 17 solvent systems (gravimetric); format: physicochemical; details: EtOAc, 50 °C, organic solvent or mixture, thermodynamic from solid, gravimetric
property: solubility (mg/mL)
Numbers only; they are read as mg/mL.

Asked: Which measured solubility value corresponds to `CC1=C(C)C(=O)C(CC[C@@](C)(O)C(N)=O)=C(C)C1=O` ?
Given back: 38

----------
test: Solubility measurement of Pattern A in 17 solvent systems (gravimetric); type: physicochemical; settings: 2-MeTHF, 50 °C, organic solvent or mixture, thermodynamic from solid, gravimetric
property: solubility (mg/mL)
Numbers only; they are read as mg/mL.

Asked: Which measured solubility value corresponds to CC1=C(C)C(=O)C(CC[C@@](C)(O)C(N)=O)=C(C)C1=O [Pattern A] ?
Given back: 59

----------
experiment: Solubility measurement of Pattern A in 17 solvent systems (gravimetric); assay type: physicochemical; conditions: IPA, 25 °C, organic solvent or mixture, thermodynamic from solid, gravimetric
property: solubility (mg/mL)
Numbers only; they are read as mg/mL.

Asked: Which measured solubility value corresponds to `CC1=C(C)C(=O)C(CC[C@@](C)(O)C(N)=O)=C(C)C1=O` ?
Given back: 20

----------
Assay: Solubility measurement of Pattern A in 17 solvent systems (gravimetric)
Format: physicochemical
Settings: 0.5% methyl cellulose in water, 50 °C, aqueous with cosolvent or surfactant or cyclodextrin, thermodynamic from solid, 0.5% MC in Water; part of the concentration relates to solvent constituents
Source text: (R)-Trolox was produced from racemic Trolox via methylbenzyl amine double resolution in a manner similar to that described in Example 29 of U.S. Pat. No. 4,026,907. This (R)-Trolox was used to synthesize the (R)-2-hydroxy-2-methyl-4-(2,4,5-trimethyl-3,6-dioxocyclohexa-1,4-dienyl)butanamide starting material. […] Excess amount of solid was slurried in 17 solvent systems having diverse properties for minimum of 3 days. […] Table 9 presents the measured solubility data. […]
property: solubility

Asked: Which measured solubility value corresponds to `CC1=C(C)C(=O)C(CC[C@@](C)(O)C(N)=O)=C(C)C1=O` ?
Given back: 4000 µg/mL
